# ASSAYED SYSTEM: D(2) dopamine receptor (Homo sapiens) (UniProt P14416)
# Sequence (P14416 whole entry, looked up): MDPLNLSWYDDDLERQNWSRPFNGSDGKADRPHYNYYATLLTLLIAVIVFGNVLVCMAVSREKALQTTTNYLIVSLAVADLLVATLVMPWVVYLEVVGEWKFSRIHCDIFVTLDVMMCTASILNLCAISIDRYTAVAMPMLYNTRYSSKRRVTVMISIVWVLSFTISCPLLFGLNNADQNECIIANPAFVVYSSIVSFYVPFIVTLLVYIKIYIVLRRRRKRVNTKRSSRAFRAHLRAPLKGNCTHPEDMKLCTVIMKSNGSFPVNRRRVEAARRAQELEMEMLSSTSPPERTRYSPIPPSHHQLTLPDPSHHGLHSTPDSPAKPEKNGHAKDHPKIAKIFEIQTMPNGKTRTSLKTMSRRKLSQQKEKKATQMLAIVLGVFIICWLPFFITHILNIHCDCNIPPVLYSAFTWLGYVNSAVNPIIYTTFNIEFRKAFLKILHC
# PROCEDURE DETAILS: Dopamine D2 receptor (DRD2) small molecule antagonists, cell-based qHTS assay (AID 1963595)
# MEASUREMENT SETUP: HEK293-DRD2 cAMP HTRF antagonist mode; series mostly up to 92.4 µM
Records with an inconclusive call do not appear. Calls of active or inactive are those of the source. The call rests on the fitted dose curve; in most records, active means well fitted inhibition curve with a large enough effect in the signal ratio in the repeat runs, with a control signal flat; inconclusive means weak or mixed curves, or effect the other way; inactive means flat fitted curve, though single readings scatter; the % refers to the signal ratio.
OUTCOME MEASURE: outcome

| COMPOUND | RESULT |
| --- | --- |
| Cc1ccc(C#N)cc1 | inactive |
| COc1cc(C)nc(-n2nc(C)cc2OC)n1 | inactive |
| CCCCCCCCCCCCCCCCC(C(=O)O)C(O)(CC(=O)O)C(=O)O (stereo not drawn) | inactive |
| OCCN1CCOCC1 | inactive |
| Cc1cc(O)c2ccccc2c1O | inactive |
| Cc1ccc(C(N)=O)cc1N | inactive |
| CCCCCCCCC(CCCCCC)C(=O)O (stereo not drawn) | inactive |
| CCc1c(C(=O)NN2CCCCC2)nn(-c2ccc(Cl)cc2Cl)c1-c1ccc(Br)cc1 | inactive |
| CCCC(=O)OCCc1ccccc1 | inactive |
| Cc1ncc([N+](=O)[O-])n1CC(O)CCl (stereo not drawn) | inactive |
| N#Cc1nc(Cl)c(Cl)c(Cl)c1Cl | inactive |
| C=CCOC(=O)COCCC(C)C | inactive |
| Cc1c(O)cccc1O | inactive |
| CC(=O)OCC1=C(C(=O)O)N2C(=O)[C@@H](NC(=O)CSc3ccncc3)[C@H]2SC1 | inactive |
| O=[N+]([O-])c1ccc(Cl)cc1Cl | inactive |
| CC(Oc1c(Cl)cccc1Cl)C1=NCCN1 (stereo not drawn) | inactive |
| CO/N=C1\CN(c2nc3c(cc2F)c(=O)c(C(=O)O)cn3C2CC2)CC1CN (stereo not drawn) | inactive |
| CO | inactive |
| O=S(=O)(O)c1cc(I)c(O)c2ncccc12 | inactive |
| O=C1CCCCCN1SSN1CCCCCC1=O | inactive |
| C[C@@H](O)C(=O)O | inactive |
| NC(=O)Cn1c(=O)cc(CCN2CCN(c3nccc4sccc34)CC2)c2ccc(F)cc21 | inactive |
| CN(C)CCOCCO | inactive |
| CCCCOC(=O)CC#N | inactive |
| CC(C)(C)c1ccc(OCC2CO2)cc1 (stereo not drawn) | inactive |
| Nc1ccc(N)c2ccccc12 | inactive |
| COc1ccc(S(=O)(=O)N2C(=O)[C@@](c3ccccc3OC)(N3C[C@H](O)C[C@H]3C(=O)N(C)C)c3cc(Cl)ccc32)c(OC)c1 | inactive |
| Cc1cc(C(C#N)c2ccc(Cl)cc2)c(Cl)cc1NC(=O)c1cc(I)cc(I)c1O (stereo not drawn) | inactive |

* * *

# ASSAYED SYSTEM: 5-hydroxytryptamine receptor 2A (Homo sapiens)
# PROCEDURE DETAILS: 5-hydroxytryptamine receptor 2A (HTR2A) small molecule agonists, cell-based qHTS assay (AID 1963587); further: nearly all actives have a fitted effect of over 30% in size
# MEASUREMENT SETUP: HTR2A-CHO cells, calcium flux fluorescence, agonist mode; series mostly up to 76.8 µM
Records with an inconclusive call do not appear. Calls of active or inactive are those of the source. Calls follow the shape of the full dose curve.
Outcome codes: T (active), F (inactive)

| MOLECULE | LABEL |
| --- | --- |
| CC(C)COCC(CN(Cc1ccccc1)c1ccccc1)N1CCCC1 (stereo not drawn) | T |
| CC(C)COC(=O)COc1ccc(Cl)cc1Cl | F |
| CC(O)C#CC(C)O (stereo not drawn) | F |
| O=C(c1ccc(O)cc1)c1ccc(O)c(O)c1O | F |
| CCOCCn1c(N2CCCN(C)CC2)nc2ccccc21 | F |
| NC(=O)c1ccccc1 | F |
| COC(=O)CC(C)=O | F |
| CC(=O)CCc1ccc(OC(C)=O)cc1 | F |
| C[C@@H](NCCCc1cccc(C(F)(F)F)c1)c1cccc2ccccc12 | T |
| CC(=O)c1ccc2c(c1)[C@H](NC(=O)c1ccc(F)cc1)[C@@H](O)C(C)(C)O2 | F |
| NC(=O)Nc1nc2ccccc2[nH]1 | F |
| Cc1c(-c2ccc(O)cc2)n(Cc2ccc(OCCN3CCCCCC3)cc2)c2ccc(O)cc12 | F |
| CCCC/C=C/C=C\C=O | F |
| COC(=O)CCCCCCCC(=O)OC | F |
| CC(C)CCCCCOC(=O)CCCCC(=O)OCCCCCC(C)C | F |
| Oc1ccc(CCNCCCCCCNCCc2ccccc2)cc1O | F |
| NCCCN(CCO)CCO | F |
| C=CCN1C[C@H](C(=O)N(CCCN(C)C)C(=O)NCC)C[C@@H]2c3cccc4[nH]cc(c34)C[C@H]21 | T |
| Brc1cc(Br)c(Oc2cc(Br)c(Br)cc2Br)cc1Br | F |
| CSC(=O)c1cccc2nnsc12 | F |
| CN(C(=O)CN(CCO)CC(=O)N(C)C(C)(C)Cc1ccccc1)C(C)(C)Cc1ccccc1 | F |
| O=Cc1ccccc1Cl | F |
| O=C(Nc1cccc([N+](=O)[O-])c1)c1cc2ccccc2cc1O | F |
| CCC(C)(C)OC | F |
| CNC(=O)C(c1ccccc1)c1ccccc1 | F |
| CO[Si](C)(OC)OC | F |
| CCOc1ccc2[nH]cc(C(=O)NCc3ccccc3)c(=O)c2n1 | F |
| S=c1[nH]c2ccccc2s1 | F |
